target: OXA-1 (Escherichia coli, UniProt P13661)
Values of IC50 strictly less than 200 nM map to Met, and values of at least 200 nM map to Not met.

Incoming: is_below(IC50, 200 nM) for NCCONC(=O)c1ccn(C2=CC3CN(C2)C(=O)N3OS(=O)(=O)O)n1 (stereo not drawn) ?
Outgoing: Met

Incoming: Same again, this time with O=C(NC1CCNCC1)c1ccn(C2=CC3CN(C2)C(=O)N3OS(=O)(=O)O)n1 (stereo not drawn)
Outgoing: Met

Incoming: Same again, this time with NCCONC(=O)c1cn(C2=CC3CN(C2)C(=O)N3OS(=O)(=O)O)nn1 (stereo not drawn)
Outgoing: Met

Incoming: Same again, this time with O=C(Nc1nccs1)c1ccn(C2=CC3CN(C2)C(=O)N3OS(=O)(=O)[O-])n1.[Na+] (stereo not drawn)
Outgoing: Met

Incoming: Same again, this time with O=C(Nc1cc[nH]n1)c1ccn(C2=CC3CN(C2)C(=O)N3OS(=O)(=O)[O-])n1.[Na+] (stereo not drawn)
Outgoing: Met

Incoming: Same again, this time with O=C1N2CC(n3cc(N4CCNCC4)cn3)=CC(C2)N1OS(=O)(=O)O (stereo not drawn)
Outgoing: Not met

Incoming: Same again, this time with NC(=O)c1ccn(C2=CC3CN(C2)C(=O)N3OS(=O)(=O)[O-])n1.[Na+] (stereo not drawn)
Outgoing: Met

Incoming: Same again, this time with NCCNC(=O)c1cnn(C2=CC3CN(C2)C(=O)N3OS(=O)(=O)O)c1 (stereo not drawn)
Outgoing: Met

Incoming: Same again, this time with NCCc1cnn(C2=CC3CN(C2)C(=O)N3OS(=O)(=O)O)c1 (stereo not drawn)
Outgoing: Not met

Incoming: Same again, this time with O=C1N2CC(n3ccnc3CO)=CC(C2)N1OS(=O)(=O)[O-].[Na+] (stereo not drawn)
Outgoing: Met

Incoming: Same again, this time with O=C(Nc1ccn(C2=CC3CN(C2)C(=O)N3OS(=O)(=O)O)n1)c1cncs1 (stereo not drawn)
Outgoing: Met

Incoming: Same again, this time with O=C1N2CC(n3nccc3CCO)=CC(C2)N1OS(=O)(=O)[O-].[Na+] (stereo not drawn)
Outgoing: Not met

Incoming: Same again, this time with CC(=NOCCN)c1ccn(C2=CC3CN(C2)C(=O)N3OS(=O)(=O)O)n1 (mixture of isomers)
Outgoing: Met

Incoming: Same again, this time with O=C(NCCN1CCOCC1)c1ccn(C2=CC3CN(C2)C(=O)N3OS(=O)(=O)O)n1 (stereo not drawn)
Outgoing: Met

Incoming: Same again, this time with COc1cnn(C2=CC3CN(C2)C(=O)N3OS(=O)(=O)[O-])c1.[Na+] (stereo not drawn)
Outgoing: Not met

Incoming: Same again, this time with O=C1N2CC(n3cc(F)cn3)=CC(C2)N1OS(=O)(=O)[O-].[Na+] (stereo not drawn) [Example 14, sulfate]
Outgoing: Met

Incoming: Same again, this time with O=C(Nc1nncs1)c1ccn(C2=CC3CN(C2)C(=O)N3OS(=O)(=O)[O-])n1.[Na+] (stereo not drawn)
Outgoing: Met

Incoming: Same again, this time with O=C(Nc1ncns1)c1ccn(C2=CC3CN(C2)C(=O)N3OS(=O)(=O)O)n1 (stereo not drawn)
Outgoing: Met

Incoming: Same again, this time with Nc1ncc(C(=O)Nc2ccn(C3=CC4CN(C3)C(=O)N4OS(=O)(=O)[O-])n2)s1.[Na+] (stereo not drawn)
Outgoing: Met

Incoming: Same again, this time with NCCc1ccn(C2=CC3CN(C2)C(=O)N3OS(=O)(=O)O)n1 (stereo not drawn)
Outgoing: Not met

Incoming: Same again, this time with O=C1N2CC(n3cc(CO)cn3)=CC(C2)N1OS(=O)(=O)[O-].[Na+] (stereo not drawn)
Outgoing: Not met

Incoming: Same again, this time with O=C(CCO)Nc1ccn(C2=CC3CN(C2)C(=O)N3OS(=O)(=O)[O-])n1.[Na+] (stereo not drawn)
Outgoing: Met

Incoming: Same again, this time with CC(=O)c1ccn(C2=CC3CN(C2)C(=O)N3OS(=O)(=O)[O-])n1.[Na+] (stereo not drawn) [Example 28, sulfate]
Outgoing: Met

Incoming: Same again, this time with NS(=O)(=O)c1cnn(C2=CC3CN(C2)C(=O)N3OS(=O)(=O)[O-])c1.[Na+] (stereo not drawn)
Outgoing: Met

Incoming: Same again, this time with CC(=O)c1cnn(C2=CC3CN(C2)C(=O)N3OS(=O)(=O)[O-])c1.[Na+] (stereo not drawn)
Outgoing: Met

Incoming: Same again, this time with O=C1N2CC(n3ccc(F)n3)=CC(C2)N1OS(=O)(=O)[O-].[Na+] (stereo not drawn)
Outgoing: Met

Incoming: Same again, this time with O=C1N2CC(n3cc(CNCCO)nn3)=CC(C2)N1OS(=O)(=O)O (stereo not drawn)
Outgoing: Not met

Incoming: Same again, this time with NC(=O)Cc1ccn(C2=CC3CN(C2)C(=O)N3OS(=O)(=O)[O-])n1.[Na+] (stereo not drawn)
Outgoing: Not met

Incoming: Same again, this time with O=C(N[C@@H]1CCNC1)c1ccn(C2=CC3CN(C2)C(=O)N3OS(=O)(=O)O)n1 (stereo partly drawn)
Outgoing: Met

Incoming: Same again, this time with N#Cc1cnn(C2=CC3CN(C2)C(=O)N3OS(=O)(=O)[O-])c1.[Na+] (stereo not drawn)
Outgoing: Met

Incoming: Same again, this time with O=C(CO)Nc1ccn(C2=CC3CN(C2)C(=O)N3OS(=O)(=O)[O-])n1.[Na+] (stereo not drawn)
Outgoing: Met
